System: tobacco budworm (Heliothis virescens [Fabricius])
Experiment: surface-treated diet test against tobacco budworm
Type: in vivo
Conditions: 0.25 millimolar candidate insecticide on the surface of the diet; second instar larvae; five-day exposure; mortality compared to the total number of insects infested
result.type: Percent Mortality
Write the figure, then the unit, nothing else.

Known Percent Mortality results, listed for orientation:
1) ClC(Cl)=CCOc1cc(Cl)c(OCCn2cc(CC3CCCC3)nn2)c(Cl)c1 [Compound 1-5] :: 100%
2) ClC(Cl)=CCOc1cc(Cl)c(OCCn2cc(-c3ccccc3Cl)nn2)c(Cl)c1 [Compound 1-11] :: 100%

For the compound C[Si](C)(C)c1cn(CCCOc2c(Cl)cc(OCC=C(Cl)Cl)cc2Cl)nn1 [Compound 1-19] , report Percent Mortality.
100%

For the compound FC(F)(F)c1cccc(-c2cn(CCOc3c(Cl)cc(OCC=C(Cl)Cl)cc3Cl)nn2)c1 [Compound 1-14] , report Percent Mortality.
100%
